Recorded values, source patent US20150045540A1.

assayedSystem: T1, VEGF (Example 4) (UniProt P15692 27-191)
T1 chain: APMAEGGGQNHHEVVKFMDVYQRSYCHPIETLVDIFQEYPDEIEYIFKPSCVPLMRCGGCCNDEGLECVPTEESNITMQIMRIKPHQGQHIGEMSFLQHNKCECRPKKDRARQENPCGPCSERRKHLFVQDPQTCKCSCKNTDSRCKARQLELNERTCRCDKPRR
assayProcedure: VEGF-KDR inhibition
quantityName: IC50 (pM)
Write the answer as a number in pM, unit excluded.

Query block: For 4 (antibody, V domains shown) V domain 1: FQPVLHQPPAMSSALGTTIRLTCTLRNDHDIGVYSVYWYQQRPGHPPRFLLRYFSQSDKSQGPQVPPRFSGSKDVARNRGYLSISELQPEDEAMYYCAMGARSSVTHVFGSGTQLTVLS V domain 2: QPVLHQPPAMSSALGTTIRLTCTLRNDHDIGVYSVYWYQQRPGHPPRFLLRYFSQSDKSQGPQVPPRFSGSKDVARNRGYLSISELQPEDEAMYYCAMGARSSVTHVFGSGTQLTVLS , what is its reported IC50?
Result block: 449

Query block: Now consider 7 (antibody, V domains shown) V domain 1: PQPVLHQPPAMSSALGTTIRLTCTLRNDHDIGVYSVYWYQQRPGHPPRFLLRYFSQSDKSQGPQVPPRFSGSKDVARNRGYLSISELQPEDEAMYYCAMGARSSVTHVFGSGTQLTVLS V domain 2: QPVLHQPPAMSSALGTTIRLTCTLRNDHDIGVYSVYWYQQRPGHPPRFLLRYFSQSDKSQGPQVPPRFSGSKDVARNRGYLSISELQPEDEAMYYCAMGARSSVTHVFGSGTQLTVLS .
Result block: 362

Query block: Now consider 5 (antibody, V domains shown) V domain 1: PQPVLHQPPAMSSALGTTIRLTCTLRNDHDIGVYSVYWYQQRPGHPPRFLLRYFSQSDKSQGPQVPPRFSGSKDVARNRGYLSISELQPEDEAMYYCAMGARSSVTHVFGSGTQLTVLS V domain 2: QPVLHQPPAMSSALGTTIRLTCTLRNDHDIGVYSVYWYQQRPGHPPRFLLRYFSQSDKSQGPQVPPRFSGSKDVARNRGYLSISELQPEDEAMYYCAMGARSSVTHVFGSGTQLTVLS .
Result block: 409
